Values were extracted from PubChem BioAssay AID1963963.

- Test system: 958667-338-R-J2-PDC tumor spheroids viability
- test-description: Anticancer human tumor 958667-338-R-J2-PDC patient-derived colon adenocarcinoma cell line growth inhibition [PI3K]
- applied-conditions: second compound 0.00316 µM; first compound 0.316 µM; stronger effect = lower value; spheroids with HUVEC and MSC
- Excerpt: Combinatorial screen of targeted agents with the PI3K inhibitors inavolisib, alpelisib, duvelisib, and copanlisib in multi-cell type tumor spheroids A high-throughput screen of multi-cell type tumor spheroids was designed to identify active combinations of targeted small molecules and PI3K pathway inhibitors. […] Compounds. […] If the clinical Cmax for an agent had not been determined, the highest concentration tested was 10 microM. […]

| molecule | viability, T/C [%] |
| --- | --- |
| CC1(C)CCC(CN2CCN(c3ccc(C(=O)NS(=O)(=O)c4ccc(NCC5CCOCC5)c([N+](=O)[O-])c4)c(Oc4cnc5[nH]ccc5c4)c3)CC2)=C(c2ccc(Cl)cc2)C1 + COc1c(OCCCN2CCOCC2)ccc2c3n(c(=NC(=O)c4cnc(N)nc4)nc12)CCN3 | 80.3 |
| CC1(C)CCC(Nc2ncc(C(F)(F)F)c(-c3c[nH]c4c(P(C)(C)=O)c(C#N)ccc34)n2)CN1 (stereo not drawn) + COc1c(OCCCN2CCOCC2)ccc2c3n(c(=NC(=O)c4cnc(N)nc4)nc12)CCN3 | 71.1 |
| C[C@@H](NC(=O)c1ncnc(N)c1Cl)c1ncc(C(=O)Nc2cc(C(F)(F)F)c(Cl)cn2)s1 + COc1c(OCCCN2CCOCC2)ccc2c3n(c(=NC(=O)c4cnc(N)nc4)nc12)CCN3 | 107 |

====

- Test system: 958667-338-R-J2-PDC tumor spheroids viability
- test-description: Anticancer human tumor 958667-338-R-J2-PDC cell line growth inhibition [PI3K];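 also: spheroids exposed to compounds for seven days before readout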
- applied-conditions: second compound 0.0316 µM; first compound 0.316 µM; stronger effect = lower value; spheroids with HUVEC and MSC

| molecule | target-or-test-system | viability, T/C / % |
| --- | --- | --- |
| C[C@@H](NC(=O)c1ncnc(N)c1Cl)c1ncc(C(=O)Nc2cc(C(F)(F)F)c(Cl)cn2)s1 + CC(Nc1ncnc2nc[nH]c12)c1cc2cccc(Cl)c2c(=O)n1-c1ccccc1 | 958667-338-R-J2-PDC tumor spheroids viability | 99.7 |
| CC1(C)CCC(CN2CCN(c3ccc(C(=O)NS(=O)(=O)c4ccc(NCC5CCOCC5)c([N+](=O)[O-])c4)c(Oc4cnc5[nH]ccc5c4)c3)CC2)=C(c2ccc(Cl)cc2)C1 + COc1c(OCCCN2CCOCC2)ccc2c3n(c(=NC(=O)c4cnc(N)nc4)nc12)CCN3 | 958667-338-R-J2-PDC tumor spheroids viability | 61.6 |
| CCCS(=O)(=O)Nc1ccc(F)c(C(=O)c2c[nH]c3ncc(-c4ccc(Cl)cc4)cc23)c1F + Cc1nc(NC(=O)N2CCCC2C(N)=O)sc1-c1ccnc(C(C)(C)C(F)(F)F)c1 | 958667-338-R-J2-PDC tumor spheroids viability | 89.8 |
| Cn1ncc(Cl)c1-c1cc(C(=O)NC(CN)Cc2cccc(F)c2)sc1Cl (stereo not given) + CC(Nc1ccc2c(c1)OCCn1cc(N3C(=O)OCC3C(F)F)nc1-2)C(N)=O | 958667-338-R-J2-PDC tumor spheroids viability | 94.2 |
| CC1(C)CCC(Nc2ncc(C(F)(F)F)c(-c3c[nH]c4c(P(C)(C)=O)c(C#N)ccc34)n2)CN1 (stereo not given) + CC(Nc1ccc2c(c1)OCCn1cc(N3C(=O)OCC3C(F)F)nc1-2)C(N)=O | 958667-338-R-J2-PDC tumor spheroids viability | 58.2 |
